Reference source for all entries: paper PMC2756588

Biological target: Bem1-1, P29366
Sequence (P29366 55-141): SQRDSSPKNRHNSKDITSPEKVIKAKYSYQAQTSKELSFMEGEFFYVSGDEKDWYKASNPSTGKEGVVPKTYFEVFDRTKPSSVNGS
Experiment: SPOT array
Settings: median of control spots 4282
Documented SPOT intensity across a set of binders
Answer with a bare number; do not write a unit.

Answered cases to consult:
PVLPPPRSPNRPTLS
1
SSTPTTPERPKRKSG
1
DKSRPPRPPPKPLHL
0
RLSFFFPLDPAYIRN
0
PLQSKIPMLPSRRTM
1

Look at this binder and give its reported SPOT intensity. `IRMPSNPALPKKLLN`
0

What about this binder? `NFFRKKLGIPRKLKR`
1

What about this binder? `QTREPNEPPPPSPAM`
1

What about this binder? `RKRRTHLRLPLIRSN`
0

What about this binder? `DLPLPDLPPEPPTEL`
3

What about this binder? `ALRRRLPVTRSKINW`
0

What about this binder? `ISNFVPPNLPMRRFK`
1

What about this binder? `LEFRAILFIPKRAPF`
3

What about this binder? `DGNEEKPLLPTRPNK`
0

What about this binder? `GTIARPLFLVVLFFI`
0
